Assay: Competitive inhibition of bovine liver beta-glucosidase assessed as formation of 4-methylumbelliferone from 4-methylumbelliferyl […] in presence of beta-cyclodextrin by Lineweaver-Burk Plot analysis
Set-up: species or system Bos taurus
pKi: −log10 of the molar value.
Listed here: items and their measured pKi.

Chemical String	pKi
O=C(CCC(F)(F)C(F)(F)C(F)(F)C(F)(F)F)NCCCCCCCCCNC(=S)N1[C@@H]2CO[C@H]1[C@H](O)[C@@H](O)[C@@H]2O	6.59
O=C(CCC(F)(F)C(F)(F)C(F)(F)C(F)(F)C(F)(F)C(F)(F)F)NCCCCCCCCCNC(=S)N1[C@@H]2CO[C@H]1[C@H](O)[C@@H](O)[C@@H]2O	5.60
O=C(CCC(F)(F)C(F)(F)C(F)(F)C(F)(F)C(F)(F)C(F)(F)F)NCCCCNC(=S)N1[C@@H]2CO[C@H]1[C@H](O)[C@@H](O)[C@@H]2O	6.89
O=C(CCC(F)(F)C(F)(F)C(F)(F)C(F)(F)F)NCCCCNC(=S)N1[C@@H]2CO[C@H]1[C@H](O)[C@@H](O)[C@@H]2O	5.89
